Source of measurements: the supplement of paper PMC10307832

Assignment: determine reported relative viability for the given compounds.
System: NCI-H1944
assay-method-text: relative viability (nuclei count vs DMSO), 5 days (fraction); higher = more cells survive
experimental-conditions: first compound 0.006325 µM
// return a plain number; no unit text

Write down relative viability measured for item CCNC(=O)c1noc(-c2cc(C(C)C)c(O)cc2O)c1-c1ccc(CN2CCOCC2)cc1 [Luminespib] + C[C@]1(O)C[C@@H](c2nc(-c3ccc4ccc(-c5ccccc5)nc4c3)c3c(N)nccn32)C1 [Linsitinib] (partner 1 µM)
1.1

Return value of relative viability for input CCNC(=O)c1noc(-c2cc(C(C)C)c(O)cc2O)c1-c1ccc(CN2CCOCC2)cc1 [Luminespib] + C[C@@H](Oc1cc(-c2cnn(C3CCNCC3)c2)cnc1N)c1c(Cl)ccc(F)c1Cl [Crizotinib] (partner 1 µM) , no commentary.
1.04

Look up and report measured relative viability for this entry: CCNC(=O)c1noc(-c2cc(C(C)C)c(O)cc2O)c1-c1ccc(CN2CCOCC2)cc1 [Luminespib] + Cc1nc(Nc2ncc(C(=O)Nc3c(C)cccc3Cl)s2)cc(N2CCN(CCO)CC2)n1 [Dasatinib] (partner 0.075 µM)
0.232

State, in one line, measured relative viability of CCNC(=O)c1noc(-c2cc(C(C)C)c(O)cc2O)c1-c1ccc(CN2CCOCC2)cc1 [Luminespib] + CS(=O)(=O)CCNCc1ccc(-c2ccc3ncnc(Nc4ccc(OCc5cccc(F)c5)c(Cl)c4)c3c2)o1 [Lapatinib] (partner 2 µM)
0.724

Please give measured relative viability of the following entry: CCNC(=O)c1noc(-c2cc(C(C)C)c(O)cc2O)c1-c1ccc(CN2CCOCC2)cc1 [Luminespib] + COc1cccc2cc(-c3nc([C@H]4CC[C@H](C(=O)O)CC4)n4ncnc(N)c34)[nH]c12 [OSI-027] (partner 0.5 µM)
0.359
